A collection of compounds and their measured DHX9 Biochemical Max Inhibition
TGT: Human recombinant DHX9 protein (Homo sapiens (Human))
Sequence (Q08211 whole entry): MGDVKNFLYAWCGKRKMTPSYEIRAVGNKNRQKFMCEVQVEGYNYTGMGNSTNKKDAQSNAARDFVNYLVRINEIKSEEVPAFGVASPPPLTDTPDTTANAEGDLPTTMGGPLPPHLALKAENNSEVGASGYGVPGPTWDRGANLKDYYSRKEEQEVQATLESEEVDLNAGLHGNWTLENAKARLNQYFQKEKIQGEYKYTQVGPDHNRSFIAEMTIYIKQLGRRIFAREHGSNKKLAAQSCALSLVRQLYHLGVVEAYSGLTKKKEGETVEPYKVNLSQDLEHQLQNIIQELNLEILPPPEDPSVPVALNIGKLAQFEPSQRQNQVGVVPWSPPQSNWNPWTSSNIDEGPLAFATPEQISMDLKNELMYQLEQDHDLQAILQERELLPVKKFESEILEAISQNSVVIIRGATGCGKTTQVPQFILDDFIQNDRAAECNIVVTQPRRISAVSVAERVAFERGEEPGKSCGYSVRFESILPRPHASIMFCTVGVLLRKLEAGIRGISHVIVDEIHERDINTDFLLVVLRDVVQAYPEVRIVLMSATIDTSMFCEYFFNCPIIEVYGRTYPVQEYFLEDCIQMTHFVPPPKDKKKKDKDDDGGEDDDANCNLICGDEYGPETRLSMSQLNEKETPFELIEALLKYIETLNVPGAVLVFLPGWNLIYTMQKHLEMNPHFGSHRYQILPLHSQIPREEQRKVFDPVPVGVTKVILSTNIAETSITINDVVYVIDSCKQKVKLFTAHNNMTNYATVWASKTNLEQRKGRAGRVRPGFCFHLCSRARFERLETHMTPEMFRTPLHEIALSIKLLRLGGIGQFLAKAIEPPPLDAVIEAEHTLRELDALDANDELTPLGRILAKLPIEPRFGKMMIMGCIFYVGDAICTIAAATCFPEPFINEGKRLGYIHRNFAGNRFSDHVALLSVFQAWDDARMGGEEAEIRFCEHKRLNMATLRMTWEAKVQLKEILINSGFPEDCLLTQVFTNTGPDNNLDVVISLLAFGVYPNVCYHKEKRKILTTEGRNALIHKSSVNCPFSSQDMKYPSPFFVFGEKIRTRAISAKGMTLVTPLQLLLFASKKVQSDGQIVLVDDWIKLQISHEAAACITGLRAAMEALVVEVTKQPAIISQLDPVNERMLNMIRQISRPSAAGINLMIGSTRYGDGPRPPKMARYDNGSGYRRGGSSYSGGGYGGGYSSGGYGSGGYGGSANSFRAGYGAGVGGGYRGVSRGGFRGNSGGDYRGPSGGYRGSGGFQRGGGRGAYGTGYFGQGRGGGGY
MEASUREMENT_DESCRIPTION: DHX9 ATPase assay (ADP-Glo)
Format: biochemical
MEASUREMENT_NAME: DHX9 Biochemical Max Inhibition (%)

1) CS(=O)(=O)Nc1cc(Cl)cc(NC(=O)c2cnn(-c3ncccc3OCc3ccn[nH]3)c2)c1 [Example 253]    70
2) CCS(=O)(=O)Nc1cc(Cl)cc(NC(=O)c2cc(-c3ncc(F)cc3F)c(C)s2)c1 [Example 347]    72.1
3) Cc1cc(C(=O)Nc2cc(Cl)cc(NS(=O)(=O)C(F)F)c2)cn1-c1ccc(N2CCOCC2)cn1 [Example 248]    70.8
4) CS(=O)(=O)Nc1cc(Cl)cc(NC(=O)c2cnn(-c3ncccc3OCc3cc(F)cc(F)c3)c2)c1 [Example 256]    70.1

====

TGT: Human recombinant DHX9 protein (Homo sapiens (Human))
MEASUREMENT_DESCRIPTION: DHX9 ATPase assay (ADP-Glo)
Type: biochemical
MEASUREMENT_NAME: DHX9 Biochemical Max Inhibition (%)

1) Cn1nc(-c2ccccn2)cc1C(=O)Nc1cc(Cl)cc(NS(C)(=O)=O)c1 [Example 141]    54.9
2) CC(=O)NC1CC2(C1)CC(n1cc(C(=O)Nc3cc(Cl)cc(NS(C)(=O)=O)c3)cn1)C2 (stereo not shown) [Example 310]    70.3
3) CS(=O)(=O)Nc1cc(Cl)cc(NC(=O)c2cc(-c3ncccc3CC(=O)N3CCC3)cs2)c1 [Example 382]    75.9
4) CS(=O)(=O)Nc1cc(Cl)cc(NC(=O)c2cc(C(F)(F)F)n(-c3ccc(N4CCOCC4)cn3)c2)c1 [Example 271]    66.1

These measurements were taken from patent US20240316047A1.
